Origin of measurements: PubChem BioAssay (EPA / NIEHS)

protocol_summary: CEETOX_H295R_DOC: CeeTox H295R High-throughput Steroidogenesis Assay for DOC (AID 2283439)
condition_notes: actives raise or lower the signal
Active and inactive are the calls of the source. How the source made its calls: active means hit-call score of the fitted dose curve at least 0.9, where 1 is the maximum; inactive means score below 0.9.
Please reply with one of these outcomes: active, inactive

The examples below pair each entry with its known result.
compound="CN1C(=O)N(c2ccccc2Br)Cc2cnc(Nc3ccc4c(c3)OCC(CO)O4)nc21 (stereo unspecified)" label=active
compound=CCCCCCCCN(C)CCCCCCCC label=inactive
compound=O=C(O)Cn1c(=O)n(Cc2ccc(Br)cc2F)c(=O)c2ccc(Cl)cc21 label=inactive

Please examine the following record next.
Prompt line: What did this assay record as the result for Clc1ccccc1C(c1ccccc1)(c1ccccc1)n1ccnc1 ?
Response line: active
